# study target: T1, GFP-9S library array, motif 4 ND N98G;D124T (synthetic construct, N98G;D124T)
# T1 chain: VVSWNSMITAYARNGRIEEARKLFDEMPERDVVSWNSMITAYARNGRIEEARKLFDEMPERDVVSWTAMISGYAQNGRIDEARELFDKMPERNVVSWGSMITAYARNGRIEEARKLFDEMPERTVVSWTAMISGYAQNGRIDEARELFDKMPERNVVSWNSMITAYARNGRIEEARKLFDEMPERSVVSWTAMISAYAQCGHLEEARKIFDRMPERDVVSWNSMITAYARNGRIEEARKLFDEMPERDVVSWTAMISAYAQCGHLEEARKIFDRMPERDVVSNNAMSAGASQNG
# procedure text: high-throughput RNA pulldown from lysate on Ni-NTA beads; HRP: 50 mM Tris pH 8, 150 mM NaCl, 1 mM beta-mercaptoethanol, 50 ug/ml BSA, 3 ug/ml yeast RNA, 0.5% heparin; ITC and FP: Tris pH 8, 200 mM KCl, 5% glycerol; MST: 50 mM Tris pH 8, 200 mM NaCl, 1 mM DTT, BSA, heparin, 0.05% Tween 20
# conditions used: tags: N-terminal His-eGFP; label: 5' Cy5
reported property: Kd (nM)
Answer in nM, number only, no unit symbol.

Value of Kd reported for the binder AUUACACGUGA (ssRNA) [Cy5-rpoA] is 169

# next binder below
The reported Kd of the binder AUUAGACGUGA (ssRNA) [Cy5-rpoA-G] was 436
